// provenance: patent US20220324953A1

For each entry below, report its kon value.
# tgt: T1, human CTGF (antigen of the Biacore assays) (human, UniProt P29279 27-349)
# T1 construct: also called antigen human CTGF; human CTGF protein
# T1 sequence (looked up): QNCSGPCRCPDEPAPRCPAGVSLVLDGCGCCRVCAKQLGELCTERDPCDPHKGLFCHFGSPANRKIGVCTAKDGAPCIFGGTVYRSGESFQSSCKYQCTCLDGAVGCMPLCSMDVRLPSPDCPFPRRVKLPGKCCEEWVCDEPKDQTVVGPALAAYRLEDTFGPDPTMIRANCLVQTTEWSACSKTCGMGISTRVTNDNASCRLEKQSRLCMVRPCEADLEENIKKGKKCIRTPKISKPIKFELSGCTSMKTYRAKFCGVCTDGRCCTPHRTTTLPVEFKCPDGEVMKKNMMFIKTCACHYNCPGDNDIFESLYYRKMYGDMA
# assay details: Biacore, antibody captured on Protein A, CTGF in flow, 1:1 fit
Please state the number and follow it with the unit.

Some entries whose results are on file:
Look at this binder and give its reported kon. Hu147-22wk (antibody, human IgG1, kappa, V domains shown) VH: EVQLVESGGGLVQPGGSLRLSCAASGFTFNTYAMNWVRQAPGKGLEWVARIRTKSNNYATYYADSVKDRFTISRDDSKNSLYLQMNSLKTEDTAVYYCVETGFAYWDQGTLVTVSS VL: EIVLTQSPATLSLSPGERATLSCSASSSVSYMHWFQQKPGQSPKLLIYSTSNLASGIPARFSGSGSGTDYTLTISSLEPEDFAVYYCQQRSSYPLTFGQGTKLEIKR 1.4e+07 M⁻¹ s⁻¹

Look at this binder and give its reported kon. Hu164-68wl (antibody, human IgG1, lambda, V domains shown) VH: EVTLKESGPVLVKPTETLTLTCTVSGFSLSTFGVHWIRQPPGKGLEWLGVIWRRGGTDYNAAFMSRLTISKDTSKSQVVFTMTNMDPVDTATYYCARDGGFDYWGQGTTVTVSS VL: ETVVTQEPSFSVSPGGTVTLTCRSSIGAVTTSNYANWVQQTPGQAFRGLIGGTSNRAPGVPDRFSGSILGNKAALTITGAQADDESDYYCALWYSTHYVFGGGTKLTVLG 3.84e+07 M⁻¹ s⁻¹

Turning now to a further binder:
Look at this binder and give its reported kon. Hu147-23wk (antibody, human IgG1, kappa, V domains shown) VH: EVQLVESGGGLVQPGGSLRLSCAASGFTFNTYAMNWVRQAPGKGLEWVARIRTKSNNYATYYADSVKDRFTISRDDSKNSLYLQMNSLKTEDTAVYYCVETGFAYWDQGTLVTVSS VL: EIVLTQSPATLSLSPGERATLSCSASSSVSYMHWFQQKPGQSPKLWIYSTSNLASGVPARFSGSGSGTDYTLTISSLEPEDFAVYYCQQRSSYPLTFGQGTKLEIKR 1.37e+07 M⁻¹ s⁻¹
